TEST_TARGET: AKR1C3 (Homo sapiens (Human), UniProt P42330)
Sequence (P42330 whole entry): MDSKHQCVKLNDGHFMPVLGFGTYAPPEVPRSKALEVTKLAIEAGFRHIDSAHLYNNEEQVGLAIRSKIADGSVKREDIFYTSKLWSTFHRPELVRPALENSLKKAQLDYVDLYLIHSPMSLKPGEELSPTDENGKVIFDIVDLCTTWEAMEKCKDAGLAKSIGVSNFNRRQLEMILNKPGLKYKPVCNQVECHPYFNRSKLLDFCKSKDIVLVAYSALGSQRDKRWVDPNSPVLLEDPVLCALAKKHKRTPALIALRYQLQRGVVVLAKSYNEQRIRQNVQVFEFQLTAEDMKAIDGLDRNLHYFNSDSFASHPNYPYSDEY
ASSAY_PROTOCOL: S-tetralol oxidation assay, AKR1C3
Type: biochemical
SETTINGS: E.NADP+.I complex; read-out: Ki, competitive inhibition of AKR1C3 catalyzed oxidation of S-tetralol
Procedure: Enzymes were purified to constant specific activity and their purity established by SDS-PAGE. All AKR enzymes were stored at −80° C. in 20 mM potassium phosphate buffer pH 7.0 containing 30% glycerol, 1 mM EDTA, and 1 mM β-mercaptoethanol. […] The specific activities of AKR1C enzymes were determined by measuring the formation of NADH at 340 nm using a Beckman DU640 spectrophotometer. […] The mixtures were incubated at 25° C. (AKR1C1 and 1C4) or 37° C. […]
ATTRIBUTE_MEASURED: pKi
Here pKi is given on a logarithmic scale as minus log10 of the concentration in mol/L.

IN: Which pKi is reported for this compound? CC[C@@H](C(=O)O)c1ccc2cc(OC)ccc2c1 [LM5750B 8a]
OUT: 7.51

====

Entries and their IC50
TEST_TARGET: AKR1C2 (Homo sapiens (Human), UniProt P52895)
Sequence (P52895 whole entry): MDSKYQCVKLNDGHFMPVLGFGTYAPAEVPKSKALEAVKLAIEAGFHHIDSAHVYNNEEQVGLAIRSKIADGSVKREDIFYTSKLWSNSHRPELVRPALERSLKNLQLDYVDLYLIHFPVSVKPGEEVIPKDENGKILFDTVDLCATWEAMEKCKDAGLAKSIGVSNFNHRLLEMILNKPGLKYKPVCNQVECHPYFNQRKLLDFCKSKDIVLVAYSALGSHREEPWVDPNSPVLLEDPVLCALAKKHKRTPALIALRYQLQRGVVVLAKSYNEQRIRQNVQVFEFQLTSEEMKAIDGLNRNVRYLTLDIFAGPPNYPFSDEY
# unit: µM | format: bare number

COc1ccc2cc(C(C)(C)C(=O)O)ccc2c1 [DimethylNaproxen 9]
1.32

IN: Which IC50 is reported for this compound? CCC(C(=O)O)c1ccc2cc(OC)ccc2c1 (racemic) [LM5750(±) 8]
OUT: 7.6

IN: What do you have for CCC(C(=O)NS(C)(=O)=O)c1ccc2cc(OC)ccc2c1 (racemic) [LM5885 (±) 7] ?
OUT: 34

IN: What do you have for CSc1ccc2cc([C@@H](C)C(=O)O)ccc2c1 [(R)-4a] ?
OUT: 4.35

====

TEST_TARGET: AKR1C3 (Homo sapiens (Human), UniProt P42330)
ASSAY_PROTOCOL: S-tetralol oxidation assay, AKR1C3
Format: biochemical
SETTINGS: S-tetralol oxidation
ATTRIBUTE_MEASURED: pIC50
Here pIC50 is given on a logarithmic scale as minus log10 of the concentration in mol/L.

IN: Which pIC50 is reported for this molecule? CCC(C(=O)O)c1ccc2cc(OC)ccc2c1 (racemic) [LM5750(±) 8]
OUT: 6.92

IN: What do you have for CSc1ccc2cc(C(C)C(=O)O)ccc2c1 (racemic) [LM5752(±) 4] ?
OUT: 7.22

====

TEST_TARGET: UniProt:P52895
Label Criterion met when IC50 is strictly below 2000 nM; otherwise label Criterion not met.

COc1ccc2cc(CC(=O)O)ccc2c1
Criterion not met

IN: hey, is IC50 for COc1ccc2cc([C@@H](C)C(=O)O)ccc2c1 [R-Naproxen (1a), reference compound] lower than 2000 nM or not?
OUT: Criterion not met

IN: What do you have for CC(C(=O)O)c1ccc2cc(S(C)(=O)=O)ccc2c1 (racemic) [LM5754(±) 6] ?
OUT: Criterion not met

IN: What do you have for CCc1ccc2cc(C(C)C(=O)O)ccc2c1 (racemic) [LM5751(±) 2, 2-(6-Ethylnaphthalen-2-yl)propanoic Acid] ?
OUT: Criterion met

IN: What do you have for CCOc1ccc2cc(C(C)C(=O)O)ccc2c1 (racemic) [LM5753(±) 3] ?
OUT: Criterion not met

IN: What do you have for COc1ccc2cc([C@H](C)C(=O)O)ccc2c1 [S-Naproxen (1), reference compound] ?
OUT: Criterion met

IN: What do you have for CC(C(=O)O)c1ccc2cc([S+](C)[O-])ccc2c1 (racemic) [LM5754(±) 5] ?
OUT: Criterion not met

IN: What do you have for CSc1ccc2cc(C(C)C(=O)O)ccc2c1 (racemic) [LM5752(±) 4] ?
OUT: Criterion met
